- Tested on: 485176-168-R4-J1-PDC spheroids with HUVEC/MSC, viability
- assay remarks: Anticancer human tumor 485176-168-R4-J1-PDC patient-derived pancreatic adenocarcinoma cell line growth inhibition [GQUAD]
- condition description: second compound 0.316 µM; first compound 1 µM; stronger effect = lower value
- Source text: DNA G-quadruplex Stabilizer Agents in Combinations in Complex Spheroids A high-throughput screen of multi-cell type tumor spheroids was designed to identify active combinations of DNA G-quadruplex stabilizer agents and targeted small molecules. […] Compounds. […] If the clinical Cmax for an agent had not been determined, the highest concentration tested was 10 microM. […]
Task for the reader: assign each of the following compounds its reported viability, T/C.
One number for each entry, in %.

Below, each entry is followed by its recorded viability, T/C result.
COc1ccc([C@@H](O)c2cc(-c3ncnc4cc(N5CCOCC5)ccc34)c(F)cc2Cl)nn1 + Cc1cnc(CNC(=O)c2c(=O)c3ccc(N4CCCN(C)CC4)nc3n3c2sc2ccccc23)cn1	36.9
CC(C)(O)C1CCC(Nc2ccc3ncc(-c4cccc(C(F)(F)F)c4)n3n2)CC1 (configuration not stated) + CN(C)c1ccc(Nc2c3ccc(NC(=O)CCN4CCCC4)cc3nc3cc(NC(=O)CCN4CCCC4)ccc23)cc1	97.9
C#Cc1c(F)ccc2cc(O)cc(-c3ncc4c(N5CC6CCC(C5)N6)nc(OCC56CCCN5CC(F)C6)nc4c3F)c12 (configuration not stated) + Cc1[nH]c2ccc(F)cc2c1-c1nc2c3cccnc3c3ncccc3c2[nH]1	107
C=CCn1c(=O)c2cnc(Nc3ccc(N4CCN(C)CC4)cc3)nc2n1-c1cccc(C(C)(C)O)n1 + CN(C)c1ccc(Nc2c3ccc(NC(=O)CCN4CCCC4)cc3nc3cc(NC(=O)CCN4CCCC4)ccc23)cc1	17.2

# map each compound to its viability, T/C
1. O=c1[nH]cc(F)c(=O)[nH]1 + Cc1cnc(CNC(=O)c2c(=O)c3ccc(N4CCCN(C)CC4)nc3n3c2sc2ccccc23)cn1
2. C=CCn1c(=O)c2cnc(Nc3ccc(N4CCN(C)CC4)cc3)nc2n1-c1cccc(C(C)(C)O)n1 + Cc1cnc(CNC(=O)c2c(=O)c3ccc(N4CCCN(C)CC4)nc3n3c2sc2ccccc23)cn1
3. CC1COCCN1c1cc(C2(O)CC3CCC(C2)O3)c2cnn(-c3ccn[nH]3)c2n1 (configuration not stated) + CN(C)c1ccc(Nc2c3ccc(NC(=O)CCN4CCCC4)cc3nc3cc(NC(=O)CCN4CCCC4)ccc23)cc1

1. 45.3
2. 9.59
3. 10.9

----------
- System: 485176-168-R4-J1-PDC spheroids with HUVEC/MSC, viability
- assay remarks: Anticancer human tumor 485176-168-R4-J1-PDC cell line growth inhibition [GQUAD];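 also: spheroids exposed to compounds for seven days before readout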
- condition description: curve of first compound; second compound 0.1 µM
observed property: log10 IC50 (log10 of the value in nM)
In plain terms, each number is the log10 of measured IC50 in nM.

O=c1[nH]cc(F)c(=O)[nH]1 + Cc1cnc(CNC(=O)c2c(=O)c3ccc(N4CCCN(C)CC4)nc3n3c2sc2ccccc23)cn1	2.43
CC1COCCN1c1cc(-c2ccnn2C)c2ccnc(-c3ccn[nH]3)c2n1 (stereo unspecified) + CN(C)c1ccc(Nc2c3ccc(NC(=O)CCN4CCCC4)cc3nc3cc(NC(=O)CCN4CCCC4)ccc23)cc1	2.07
C=CCn1c(=O)c2cnc(Nc3ccc(N4CCN(C)CC4)cc3)nc2n1-c1cccc(C(C)(C)O)n1 + Cc1cnc(CNC(=O)c2c(=O)c3ccc(N4CCCN(C)CC4)nc3n3c2sc2ccccc23)cn1	2.22

// batch mode: one log10 IC50 value per listed entry
1. COc1ccc([C@@H](O)c2cc(-c3ncnc4cc(N5CCOCC5)ccc34)c(F)cc2Cl)nn1 + Cc1[nH]c2ccc(F)cc2c1-c1nc2c3cccnc3c3ncccc3c2[nH]1
2. COc1cccc2c1C(=O)c1c(O)c3c(c(O)c1C2=O)CC(O)(C(=O)CO)CC3OC1CC(N)C(O)C(C)O1 (stereo unspecified) + Cc1cnc(CNC(=O)c2c(=O)c3ccc(N4CCCN(C)CC4)nc3n3c2sc2ccccc23)cn1
3. CCc1c2c(nc3ccc(O)cc13)-c1cc3c(c(=O)n1C2)COC(=O)[C@]3(O)CC + CN(C)c1ccc(Nc2c3ccc(NC(=O)CCN4CCCC4)cc3nc3cc(NC(=O)CCN4CCCC4)ccc23)cc1
4. CC(C)(O)C1CCC(Nc2ccc3ncc(-c4cccc(C(F)(F)F)c4)n3n2)CC1 (stereo unspecified) + Cc1cnc(CNC(=O)c2c(=O)c3ccc(N4CCCN(C)CC4)nc3n3c2sc2ccccc23)cn1

1. 3.43
2. 2.15
3. 0.97
4. 3.64

Cited source: PubChem BioAssay AID2060509
